system: RFK module of CaFADS (Corynebacterium ammoniagenes, UniProt Q59263, L183M)
Construct: a truncated CaFADS variant consisting in the isolated C-terminal RFK module; made in house; host or cells: E. coli BL21(DE3)
Sequence (Q59263 183-338 L183M): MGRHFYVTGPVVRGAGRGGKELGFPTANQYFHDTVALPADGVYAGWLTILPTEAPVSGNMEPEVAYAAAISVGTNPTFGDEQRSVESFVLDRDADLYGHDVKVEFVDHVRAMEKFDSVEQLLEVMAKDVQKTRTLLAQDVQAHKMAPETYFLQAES
run.description: Steady-state RFK activity (HPLC quantification of flavins)
Format: biochemical
cond: global fit of Lineweaver-Burk equation, competitive inhibition; ~5 µM RF; read-out: KiADP
readout.name: Ki (µM)
Answers are plain numbers, in µM.

Summary for this compound, `Nc1ncnc2c1ncn2[C@@H]1O[C@H](COP(=O)(O)OP(=O)(O)O)[C@@H](O)[C@H]1O` : Ki is 17

Where these numbers come from: paper PMC5544777
